Assay: Dynamic light scattering of LNPs: Z-average diameter, number average diameter, PDI
Type: physicochemical
Details: LNP, sg:mRNA 1:1, N/P about 6, 50/9/38/3; Table 2, Experiments 2-20
Examples of compounds with documented Z-avg (nm) follow.
Your answer should be a plain number; it is taken to be in nm.

# annotated cases, reported Z-avg (nm) shown
CCCCC/C=C\C/C=C\CCCCCCCC(=O)OCC(COC(=O)CCC(OCCCCCCCC)OCCCCCCCC)COC(=O)NCC1CCCCN1CC (stereo not shown) ... 91.5
CCCCC/C=C\C/C=C\CCCCCCCC(=O)OCC(COC(=O)CCC(OCCCCCCCC)OCCCCCCCC)COC(=O)OCCN(C)C (stereo not shown) ... 68.72
CCCCC/C=C\C/C=C\CCCCCCCC(=O)OCC(COCCN(CC)CC)COC(=O)CCC(OCCCCCCCC)OCCCCCCCC (stereo not shown) ... 70
CCCCCC/C=C\COC(=O)CCCCCCCC(=O)OCC(COC(=O)CCC(OCCCCCCCCC)OCCCCCCCCC)COC(=O)OCCCN(CC)CC (stereo not shown) ... 89.55

Which Z-avg (nm) reading was recorded for the compound CCCCC/C=C\C/C=C\CCCCCCCC(=O)OCC(COC(=O)CCC(OCCCCCCCC)OCCCCCCCC)COC(=O)NCCN(CC)CC (stereo not shown) ?
88.53

Which Z-avg (nm) reading was recorded for the compound CCCCC/C=C\C/C=C\CCCCCCCC(=O)OCC(COC(=O)CCC(OCCCCCCCC)OCCCCCCCC)COC(=O)OCCCCN1CCCC1 (stereo not shown) ?
91.12

Which Z-avg (nm) reading was recorded for the compound CCCCC/C=C\C/C=C\CCCCCCCC(=O)OCC(COC(=O)CCC(OCCCCCCCC)OCCCCCCCC)OC(=O)OCCCN(CC)CC (stereo not shown) ?
68.66

* * *

Assay: Dynamic light scattering of LNPs: Z-average diameter, number average diameter, PDI
Format: physicochemical
Settings: LNP, sg:mRNA 1:1, N/P about 6, 50/9/38/3; Table 2, Experiments 2-20
Quick rule: PDI of at least 0.01 means fulfilled, below that means not fulfilled.

CCCCCCCCOC(CCC(=O)OCC(COC(=O)CCCCCCCC(=O)OCCCCCC)COC(=O)OCCCN(CC)CC)OCCCCCCCC (stereo not drawn) ... fulfilled
CCCCC/C=C\C/C=C\CCCCCCCC(=O)OCC(COC(=O)CCC(OCCCCCCCC)OCCCCCCCC)COC(=O)NC1CCCN(C)C1 (stereo not drawn) ... fulfilled
CCCCCCCCCCOC(=O)CCCCCCCC(=O)OCC(COC(=O)CCCC(=O)OC(CCCCCCCC)CCCCCCCC)COC(=O)OCCC1CCCN1C (stereo not drawn) ... not fulfilled
CCCCCCCCCCOC(=O)CCCCCCCCCCCC(=O)OCC(COC(=O)CCC(OCCCCCCCC)OCCCCCCCC)COC(=O)OCCCN(CC)CC (stereo not drawn) ... fulfilled
CCCCC/C=C\C/C=C\CCCCCCCC(=O)OCC(COC(=O)CC(CCCCCCCC)CCCCCCCC)COC(=O)OCCCN(CC)CC (stereo not drawn) ... fulfilled

Decide: PDI of CCCCCCCCCCOC(=O)CCCCCCCC(=O)OCC(COC(=O)CCCC(=O)OC(CCCCCCCC)CCCCCCCC)COC(=O)NCCN(CC)CC (stereo not drawn) >= 0.01?
fulfilled
